Value source: PubChem BioAssay (NCI)

Below, each entry is listed with its recorded TGI.
# Tested on: CAKI-1 renal
# Assay Protocol: NCI tumour cell line growth inhibition, 48 h

1) CC1(c2ccc(F)cc2)C2C(=O)NC(=O)C1C(=O)NC2=O (stereo not given)    > 100 µM

IN: State its TGI for this compound: C=CCc1c(O)c(C(=O)/C=C/c2ccc(Cl)cc2)c(OC)c2ccoc12
OUT: 11.6 µM

IN: State its TGI for this compound: CCOP(=O)(OCC)/C(=C/n1c(=S)[nH]c2ccccc21)C(=O)OC
OUT: > 100 µM

IN: State its TGI for this compound: Cc1cc(N(CCC#N)CCC#N)ccc1/C(N=Nc1ccc(C(=O)O)cc1)=N\NC(=O)c1ccccc1
OUT: > 100 µM

IN: State its TGI for this compound: N#CC1=C(O)NC(O)=C(C#N)C1c1c(Cl)cccc1Cl
OUT: > 100 µM

IN: State its TGI for this compound: CCC(=O)NC1=C(Cl)C(=O)C(NC(=O)CC)=C(Cl)C1=O
OUT: 10.8 µM

IN: State its TGI for this compound: C=C1C(=O)O[C@@H]2/C=C(/C)[C@@H](OC(C)=O)C[C@@H](O)/C(C)=C\[C@@H](OC(=O)[C@]3(C)O[C@@H]3C)[C@@H]12
OUT: 11.1 µM
